target: EP2 (Homo sapiens (Human)); assay: hEP2 cAMP assay (SF295 glioblastoma cells, HTRF cAMP); conditions: antagonistic activity
Sequence (P43116 whole entry): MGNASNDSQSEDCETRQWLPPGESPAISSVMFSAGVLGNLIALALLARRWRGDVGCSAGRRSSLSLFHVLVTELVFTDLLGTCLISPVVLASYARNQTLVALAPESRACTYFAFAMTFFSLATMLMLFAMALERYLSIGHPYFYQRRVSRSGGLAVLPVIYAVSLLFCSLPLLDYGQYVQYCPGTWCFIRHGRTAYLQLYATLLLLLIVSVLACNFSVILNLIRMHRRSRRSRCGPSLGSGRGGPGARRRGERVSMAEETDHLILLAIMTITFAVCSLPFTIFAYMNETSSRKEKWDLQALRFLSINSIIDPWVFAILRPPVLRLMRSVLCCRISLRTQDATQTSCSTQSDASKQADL
property-measured: pIC50
# log scale: pIC50 equals minus log10 of the concentration in mol/L

Known results for molecules:
CCOc1cc(-c2cc(NCCc3c(OC)cc4ccccc4c3F)ncn2)ccc1CC(=O)O    6.55
CCOc1cc(-c2cc(NCCc3ccc4cccnc4c3C)ncn2)sc1C(=O)O    6.40
Cn1[nH]c(=O)c2ccc(-c3cc(NCCc4ccc5cc[nH]c5c4)ncn3)cc21    6.77

Now, please, on to the next molecule.
Returns the measured pIC50 for the input molecule. Input: CCOc1cc(-c2cc(NCCc3cc4cccnc4cc3F)ncn2)sc1C(=N)NO
6.31
